# assay-target: AvrA (Salmonella enterica subsp. enterica serovar Typhimurium)
# Sequence (E8XKZ3 1-301): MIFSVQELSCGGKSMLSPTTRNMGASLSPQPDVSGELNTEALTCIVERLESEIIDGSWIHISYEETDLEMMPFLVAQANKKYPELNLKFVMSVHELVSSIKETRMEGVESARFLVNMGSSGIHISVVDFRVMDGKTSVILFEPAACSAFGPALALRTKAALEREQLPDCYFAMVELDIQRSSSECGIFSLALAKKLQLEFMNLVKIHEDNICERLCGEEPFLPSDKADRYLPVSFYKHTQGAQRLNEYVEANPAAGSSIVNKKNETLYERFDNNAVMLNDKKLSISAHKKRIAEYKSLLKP
# experiment-summary: isothermal calorimetry
# Format: binding
# test-conditions: K d, AvrA, ITC, 20 °C, mean (SD)
pKd: −log10 of the molar value.

compound	pKd
O=P(O)(O)O[C@H]1[C@H](OP(=O)(O)O)[C@@H](OP(=O)(O)O)[C@H](OP(=O)(O)O)[C@@H](OP(=O)(O)O)[C@H]1OP(=O)(O)O [IP6, myo-inositol hexakisphosphate]	6.86

---

# assay-target: TcdB CPD (Clostridioides difficile, UniProt P18177)
# Sequence (P18177 543-799 limits assumed): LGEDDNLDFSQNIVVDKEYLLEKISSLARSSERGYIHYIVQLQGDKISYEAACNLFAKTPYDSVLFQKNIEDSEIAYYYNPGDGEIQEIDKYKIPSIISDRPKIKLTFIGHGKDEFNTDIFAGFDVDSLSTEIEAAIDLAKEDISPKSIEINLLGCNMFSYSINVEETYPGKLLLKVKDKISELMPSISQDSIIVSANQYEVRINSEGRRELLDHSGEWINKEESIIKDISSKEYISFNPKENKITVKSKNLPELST

molecule	Kd [µM]
O=P(O)(O)O[C@H]1[C@H](OP(=O)(O)O)[C@@H](OP(=O)(O)O)[C@H](OP(=O)(O)O)[C@@H](OP(=O)(O)O)[C@H]1OP(=O)(O)O [IP6, myo-inositol hexakisphosphate]	1.92
